System: Dialister pneumosintes
assayNotes: Antimicrobial activity against Dialister pneumosintes by agar dilution method
Format: functional
parameter: MIC

Example results:
{"smilesText": "CCN1CCN(C(=O)N[C@@H](C(=O)N[C@@H]2C(=O)N3[C@@H]2SC(C)(C)[C@@H]3C(=O)O)c2ccccc2)C(=O)C1=O", "observedValue": "≤ 0.125 µg/mL"}
{"smilesText": "CC1(C)S[C@@H]2[C@H](NC(=O)[C@H](N)c3ccc(O)cc3)C(=O)N2[C@H]1C(=O)O", "observedValue": "≤ 0.06 µg/mL"}

Reported MIC ( `CC1(C)S[C@@H]2[C@H](NC(=O)[C@H](C(=O)O)c3ccsc3)C(=O)N2[C@H]1C(=O)O` ) = ≤ 0.06 µg/mL
